Tested on: PC-3 PIP/flu tumor-bearing mice
Test: Biodistribution studies in PC-3 PIP/flu tumor-bearing mice
Details: 4 h p.i.
Reported Blood is given for each of the following compounds.
State the answer as a number, implicitly in % IA/g.

Before answering, review these 2 worked examples.
{"columns": ["compound", "target_entity", "numeric_result"],
 "data": [
  ["O=C(O)CCC(NC(=O)NC(CCCCNC(=O)C(Cc1ccc2ccccc2c1)NC(=O)C1CCC(CNC(=O)C(CCCCNC(=O)CN2CCN(CC(=O)O)CCN(CC(=O)O)CCN(CC(=O)O)CC2)NC(=O)CC(NC(=O)CC(NC(=O)CC(NC(=O)CCCc2ccc(I)cc2)C(=O)O)C(=O)O)C(=O)O)CC1)C(=O)O)C(=O)O (stereo not drawn) [^177Lu-PSMA-ALB-07, metal not drawn]", "PC-3 PIP/flu tumor-bearing mice", 6.67],
  ["O=C(O)CCC(NC(=O)NC(CCCCNC(=O)C(Cc1ccc2ccccc2c1)NC(=O)C1CCC(CNC(=O)C(CCCCNC(=O)CN2CCN(CC(=O)O)CCN(CC(=O)O)CCN(CC(=O)O)CC2)NC(=O)CC(NC(=O)CC(NC(=O)CCCc2ccc(I)cc2)C(=O)O)C(=O)O)CC1)C(=O)O)C(=O)O (stereo not drawn) [^177Lu-PSMA-ALB-05, metal not drawn]", "PC-3 PIP/flu tumor-bearing mice", 10.2]
]}

Read the next record carefully.
Quick one: Blood of O=C(O)CCC(NC(=O)NC(CCCCNC(=O)C(Cc1ccc2ccccc2c1)NC(=O)C1CCC(n2cc(CC(NC(=O)CN3CCN(CC(=O)O)CCN(CC(=O)O)CCN(CC(=O)O)CC3)C(=O)NC(CCCCNC(=O)CCCc3ccc(I)cc3)C(=O)O)nn2)CC1)C(=O)O)C(=O)O (stereo not drawn) [^177Lu-PSMA-ALB-01, metal not drawn] ?
25.6

###

Test system: PC-3 PIP/flu tumor-bearing mice
Test: Biodistribution studies in PC-3 PIP/flu tumor-bearing mice
Settings: 4 h p.i.; PC-3 PIP tumor
reported_property: Tumor-to-blood
Respond numerically, and do not add a unit to the figure.

{"columns": ["compound", "numeric_result"],
 "data": [
  ["O=C(O)CCC(NC(=O)NC(CCCCNC(=O)C(Cc1ccc2ccccc2c1)NC(=O)C1CCC(n2cc(CC(NC(=O)CN3CCN(CC(=O)O)CCN(CC(=O)O)CCN(CC(=O)O)CC3)C(=O)NC(CCCCNC(=O)CCCc3ccc(I)cc3)C(=O)O)nn2)CC1)C(=O)O)C(=O)O (centres unmarked) [^177Lu-PSMA-ALB-01, metal not drawn]", 0.80]
]}

Read the next record carefully.
What measured Tumor-to-blood is associated with Cc1ccc(CCCC(=O)NCCCCC(NC(=O)CN2CCN(CC(=O)O)CCN(CC(=O)O)CCN(CC(=O)O)CC2)C(=O)NCC2CCC(C(=O)NC(Cc3ccc4ccccc4c3)C(=O)NCCCCC(NC(=O)NC(CCC(=O)O)C(=O)O)C(=O)O)CC2)cc1 (centres unmarked) [^177Lu-PSMA-ALB-06, metal not drawn] on PC-3 PIP/flu tumor-bearing mice?
4.72

###

System: PC-3 PIP/flu tumor-bearing mice
Assay: Biodistribution studies in PC-3 PIP/flu tumor-bearing mice
Conditions: 4 h p.i.
reported_property: Heart
Report as: number unit

Quick one: Heart of Cc1ccc(CCCC(=O)NC(CC(=O)NC(CC(=O)NC(CC(=O)NC(CCCCNC(=O)CN2CCN(CC(=O)O)CCN(CC(=O)O)CCN(CC(=O)O)CC2)C(=O)NCC2CCC(C(=O)NC(Cc3ccc4ccccc4c3)C(=O)NCCCCC(NC(=O)NC(CCC(=O)O)C(=O)O)C(=O)O)CC2)C(=O)O)C(=O)O)C(=O)O)cc1 (stereo not shown) [^177Lu-PSMA-ALB-08, metal not drawn] ?
0.19 ± 0.07 % IA/g
